run-description: yeast display, Sf9 membrane polyspecificity reagent, FACS + sequencing; frameworks hold sequencing errors
readout: polyreactivity (PSR sort gate)

residue-codes: QVQLVESGGGLVQAGGSLRLSCAASGSIFGGNAMGWYRPAPGKERELVAGISTSGGSTYYADSVKGRFTISRDNAKNTVYLQMNSLKPEDTAVYYCARGLGTYPQYWWFGTPGLDYWGQGTQVTVSS
result: low polyreactivity
//
residue-codes: QVQLVESGGVLVQAGGSLRLSCAASGSTFWTNTMGWYRQAPGKERELVAAISRRGGTTYYADSVKGRFTISRDNAKNTVYLQMNSLKPEDTAVYYCATSLIGKTVPLRVYYWGQGTQVTVSS
result: high polyreactivity
//
residue-codes: QVQLVESGGGLVQAGGSLRLSCAASGRIFLSNALGWYSQAPGKERELVAALSWTGGSTYYADSVTGRFTISRDNAKNTVYLQMNSLKPEDTAVYYCAASTVGQTYSYYVDTYDYWGQGTQVTVSS
result: low polyreactivity
//
residue-codes: QVQLVESGGGLVQAGGSLRLSCAASGGIIRTYARGWYRQAPGNETELVAAITTNAGSTYYADSVKGRFTISRDNAKNTVYLQMNSLKPEDTAVYYCAARWYYPYRTRYSASYGYWVQGTQVTVSS
result: high polyreactivity
//
residue-codes: QVQLVESGGGLVQAGGSLRLSCAASGNIFRPYTMGWYRQAPGKERELVARISSGGSTNYADSVKGRFTISRDNAKNTVYLQMNSLKPEDTAVYYCNTVFRGSSTRGYDYWGQGTQVTVSS
result: high polyreactivity

---

run-description: yeast display, Sf9 membrane polyspecificity reagent, FACS + sequencing; frameworks hold sequencing errors

residue-codes: QVKLVESGGGLVQAGGSLLLSCAASGITFSRNAMGLYREAPGKERELVAAINWTGGNTYYADSVKGRFTISRDNAKNTVYLQMISMKPEDTAVYYCAAERRCFVWGLGYWGQGTQVTVSS
polyreactivity (PSR sort gate): low polyreactivity
//
residue-codes: QVQLVESGGGLVQAGGSLRLSYAASGFIFRYYAMGWYRQAPGKERELVAAIKASGGRTYYADSVKGRFTISRDNERNTVYLQINSLKPEDTAVYYCAASRSYQTFDYWGQGTQVTVSS
polyreactivity (PSR sort gate): high polyreactivity
//
residue-codes: QVQLEETRGGLVQAGGSLRLSCAASGLFFGTYAMGWYRQPPGKEWELVAGITSSGGTTYYADSVKGRFTISRDNAKNTVYLQMNSLKPEDTAVYYCNARAVQSRYGYYYWGQGTQVTVSS
polyreactivity (PSR sort gate): low polyreactivity
//
residue-codes: QVQLVESGGGLVQAGGSLRLSCAASGFTFSKYAMGWYRQAPVKERELVATITRGGNTYYADSVKGRFTISRDNAKNTVYLQMNSLKPEDTAVYYCNTGRRNRLYDYDYWGQVTQVTVSS
polyreactivity (PSR sort gate): high polyreactivity
//
residue-codes: QVQLVESGGGLVQAGGSLRLSCAASGNIFDLYAMGWYRQAPGKERELVAAITRSSSRTYYADSVKGRFTISRDNAKNTVYLQMNSLKPEDTAVYYCAAKYSNGSGFDYWGQGTQVTVSS
polyreactivity (PSR sort gate): high polyreactivity
//
residue-codes: QVQLVESGGGLVQAGGSLRLSCAASGGTFEPNAMGWYRQPPGKEREFVAAITWNGGRTNYADSVKGRFTISRDNAKNTVYLQMNSLKPEDTAVYYCAARSYTDYNYWGQGTQVTVSS
polyreactivity (PSR sort gate): high polyreactivity
//
residue-codes: QVQLVESGGGLVQAGGSLRLSCAASGFIFVYNSMGWSRPAPGKEREFVASITWSGGRTYYADSVKGRFTISRDNAKNTVYLQMNSLKREVTAVYFCATKYPNSQVRRYDYWGQGTQVTVSS
polyreactivity (PSR sort gate): low polyreactivity
//
residue-codes: QVQLVESGGGLVQAGGSLRLSCAACGRISTAYAMGGYRQAPGTERELVAAISSGTSTTYADSVKGRFTISRDNAKNTVYLQMNSLKPEDTAVYYCAAPGRYGEYDYWGQGTQVTVSS
polyreactivity (PSR sort gate): low polyreactivity
//
residue-codes: QVQLVESGGGLVQAGGSLRLSCAASGRTLYLYAMGWYRQAPGKERELVAAITYGGGSTYYADSVKGRFTISRDNAKNTVYLQMNSLKPEDTAVYYCNAPGDGYLYDHTYDYWGQGTQVTVSS
polyreactivity (PSR sort gate): low polyreactivity
//
residue-codes: QVQLVESGGGLVQAGGSLRLSCAASGITFTENLMGWYRQAPGKERELVAGISRSGGITYFADSVKGRFTISRDNAKNTVYLQMNSLKPEDTSVYYCAADFYASYSPYYYWGQGTQVTVSS
polyreactivity (PSR sort gate): high polyreactivity
//
residue-codes: QVQLVESGGGLVQAGGSLRLSCAASGSIFRGNTMGWYRQAPGKERELLAAINWTGGSTYYADSVKGRFTISRDNAKYTVYLQMNSLKPEDTAVYYCAARKFTSYYWGRSYGYWGQGTQVTVSS
polyreactivity (PSR sort gate): high polyreactivity

---

run-description: yeast display, Sf9 membrane polyspecificity reagent, FACS + sequencing; frameworks hold sequencing errors
readout: polyreactivity (PSR sort gate)

residue-codes: QVQLVESGGGLVQAGGSLRLSCAASGRTFGQYAMGWYRQAPGKERELVAAISWGGGRTYYADSVKGRFTISRDNAKNTVYLQMNSLKPEDTAVYYCNAVYSPRYYVGGYDYWGQGTQVTVSS
readout: polyreactivity (PSR sort gate)
result: high polyreactivity
//
residue-codes: QVQLVESGGGLVQAGGSLRLSCAASGSIFYWYAMGWYRPAPGKERELVAAITSSSGRTRYADSVKGRFTISRDNAKNTVYLQMNSLKPEDTAVYYCAAGRWGSYYTPRPYGYWGQGTQVTVSS
readout: polyreactivity (PSR sort gate)
result: high polyreactivity
//
residue-codes: QVQLVESGGGLVQAGGSLRLSCAASGRTFVTYAMGWYRQAPGKERELVAVITNGGGTYYADSVKGRFTISRDNAKNTVYLQMNSLKPEDTALYYCNNDRYGLRRWVYSYLGGYDYWGQGTQVTVSS
readout: polyreactivity (PSR sort gate)
result: low polyreactivity
//
residue-codes: QVQLVESGGGLVQAGGSLRLSCAASGSTFAYYAMGWYRQAPGKERELVAAISWRGGSTYYADSVKGRFTISRDNAKNTVYLLMNILKPEVTAVYYCAAARDRWGNYWGQGTQVTVSS
readout: polyreactivity (PSR sort gate)
result: high polyreactivity
//
residue-codes: QVQLVESGGGLVQAGGSLRLSCAASGRIFHSKAMGWYRQAPGKERELVAAITWSTGRTYYADSVKGRFTISRDNAKNTVYLQMNSLKPEDTAVYYCFRFSYYTGDYWGQGTQVTVSS
readout: polyreactivity (PSR sort gate)
result: high polyreactivity
//
residue-codes: QVQLVESGGGLVQAGGSLRLSCAASGRIIAYYAMGWSRQAPGKERELVAAINWNGGSTYYADSVKGRFTISRDNAKNTVYLQMNSLKPEDTAVYYCNAGRTYTALNGDYWGQGTQVTLSS
readout: polyreactivity (PSR sort gate)
result: high polyreactivity
//
residue-codes: QVQLVESGGGLVQAGGSLRLSCAASGSTFRHYAMGWYRQQPGKERELVAAISSRGGSTYYADSVKGRFTISRDNAKNTVYLQMNSLKPEDTAVYYCNVVGYLRPSYRHMDYWGQGTQVTVSS
readout: polyreactivity (PSR sort gate)
result: high polyreactivity
//
residue-codes: QVQLVESGGGLVQAGGSLRLSCAASGSIFLTNAMGWYRQAPGKEREMVAAITLSGGITYYADSVKGRFTISRDNAKNNVYLQMNILKPEDTAVYYCAADVPGGIGNGGGYDYWGQGTQVTVSS
readout: polyreactivity (PSR sort gate)
result: low polyreactivity
//
residue-codes: QVQLVESGGGLVQAGGSLRLSCPASGRIFLGNLMGWYRQAPGKERELVAAISWSGGSTYADSVKGRFTISRDNAKNTVYFQMNSLKPEDTAVYYCAKDEGTFYNSYDYWGQGTQVTVSS
readout: polyreactivity (PSR sort gate)
result: low polyreactivity
//
residue-codes: QVQLVESGGGLVQAGGSLRLSCAASGLIFLYYAMGWYRQAPGKERELVAAISSSGSTYYADSGKGRFTISRDNAKNTVYLQMNSLKPEDTAVYYCAAAGYLYPYRYYYWGQGTQVTVSS
readout: polyreactivity (PSR sort gate)
result: high polyreactivity
//
residue-codes: QVQLVESGGGLVQAGGSLRLSCAASGRTFYIYAMGGNRQATGKERELVAAITWRGGRTYYADSVKGRFTISRDNAKNTFYLQMNSLKPEDTAVYYCGARTGQGPMYKHWGQGTQVTLSS
readout: polyreactivity (PSR sort gate)
result: high polyreactivity

---

run-description: yeast display, Sf9 membrane polyspecificity reagent, FACS + sequencing; frameworks hold sequencing errors
readout: polyreactivity (PSR sort gate)

residue-codes: QVQLQESAGGLVKAGGSLRLSCAASGNISNHNDMRWYRQAPGKEREFVAGITAGGNTNYADSVKGRFTISRDNAKNTVYLQMNSLKPEDTAVYYCAAYPDYAKSYGYWGQGTQATVSS
readout: polyreactivity (PSR sort gate)
result: low polyreactivity
--
residue-codes: HVQLVESGGGLVQAGGSLRLSCAASGRTFGAYAMGWYRQAPGKERELVAAISKSGGRTYYADSVKGRFTISRDNAKNTVYLQMNSLKPEDSAVYYCNARGFRGEYDYWGQGTQVTVSS
readout: polyreactivity (PSR sort gate)
result: high polyreactivity
--
residue-codes: QVQLVESGGGLVQAGGSLRLSCAASGGTFQRYAMGWYRQAPGKERELVAAISSGGRTYYADSVKGRFTISRDNAKNTVYLQMNSLKAVDTAVYYCNAVGWTRYWRIGWSAYYYWGQGTQETVSS
readout: polyreactivity (PSR sort gate)
result: high polyreactivity
--
residue-codes: QVQLVESGGGLVQAGGSLRLSCAASGRIFIRNAMGWYRQAPGKERELVAAITWSGGGTYYADSVKGRFTISRDNAKNTVYLQMNSLKPEDTAVYYCNVDITGYEDDYWGQGTQVTVSS
readout: polyreactivity (PSR sort gate)
result: low polyreactivity
--
residue-codes: QVQLVESGGGLVQAGGSLRLSCAASGFIFPVYTMGWYRQAPGKERELVAAITQIGGSTHYADSVTGRFTISRDNAKNTVYLQMNSLKPEDTAVYYCNAVPSYGTEYDYWGQGTQVTVSS
readout: polyreactivity (PSR sort gate)
result: low polyreactivity
--
residue-codes: QVQLVESGGGLVQAGGSLRLSCAASGSTFSFYAMGWYRQAPGKERELVAAIRAGTRTYYADSVKGRFTISRDNAKNTVYLQMNSLKPEDTAVYYCAATRRRYPYYYWGQGTQVTVSS
readout: polyreactivity (PSR sort gate)
result: high polyreactivity
--
residue-codes: QVQLEDSGGGLVQAGGSLRLICAASGSIFGYYAMGWDRQAPGKERELVAAIDSGGSTYYADSVKGRFTISRDNAKNTVYLQMNSLKPEDTAVYYCAAGVSSFSPYDSWGQGTQVTVSS
readout: polyreactivity (PSR sort gate)
result: low polyreactivity
--
residue-codes: QVQLVESGGGLVQAGGSLRLSCAASGSNSRVNAMGWYRQATWKERELVASITKSTGSTYYADSVKGRFTISRDNAKNTVYLQMNSLKPEDTAVYYCAKAASYPVRAFYYWGLGTQVTVSS
readout: polyreactivity (PSR sort gate)
result: high polyreactivity
--
residue-codes: QVQLVESGGGLVQAGGSLRLSCAASGRIFGEYAMGWYSQAPGKERELVASISSGGNTNYADSVKGRFTISRDNAKNTFYLQMNSLKPEDTAVYYCAADDYATPQKMDYWGQGTQVTVSS
readout: polyreactivity (PSR sort gate)
result: high polyreactivity
--
residue-codes: QVQLVESGGGLVQAGGSLRLSCAASGRIFTGNAMGWYRQAPGKERELVAAISRRGTRTYYADSVKGRFTISRDNAKNTVYLQMNSLKPEDTAVYYCATVLYKAYNDYGYWGQGTQVTVSS
readout: polyreactivity (PSR sort gate)
result: high polyreactivity
--
residue-codes: QVQLVESGGGLVHAGGSLRLSCAASGRIFRRYAMGWYRQAPGKERELVASISSGGSTNYADSLKGRFTISRDNAKNTVYLQMNSLNPEDTAVYYCNVYYGYFRSRYCYWGQGTQVTVSS
readout: polyreactivity (PSR sort gate)
result: high polyreactivity
